Entries and their pEC50 values follow.
- target-under-test: Solute carrier family 12 member 5 (Homo sapiens, UniProt Q9H2X9)
- measurement-notes: concentration-response of KCC2 transport modulators – cell-based, HEK293 KCC2, FluoZin-2 fluorescence, dose response (AID 1736)
pEC50: −log10 of the molar value.
reported-property: pEC50

[[record]]
compound = "CCC(c1nnc(SCc2nc3ccccc3s2)n1Cc1ccccc1)N(C)C (stereo not given)"
value_reported = 4.83

[[record]]
compound = "Cn1c(C(=O)NCCCN2CCN(c3ccccc3F)CC2)cc2c(=O)n(C)c3ccccc3c21 [MLS000118127]"
value_reported = 4.99

[[record]]
compound = "Cc1ccc(NC(=O)CCCSc2ccccc2)cc1S(=O)(=O)N1CCOCC1 [MLS000761060]"
value_reported = 5.17

[[record]]
compound = "Cc1ccc(S(=O)(=O)N(CCC(=O)O)Cc2ccc(Cl)cc2)cc1"
value_reported = 6.31

[[record]]
compound = "Cc1oc(-c2ccccc2)nc1C[S+]([O-])CC(=O)N1CCc2ccccc2C1 (stereo not given)"
value_reported = 5.11

[[record]]
compound = "Cc1ccccc1-c1nc(CS(=O)(=O)CC(=O)NCc2ccccc2)c(C)o1"
value_reported = 4.93

[[record]]
compound = "CN1/C(=C\\C(=S)NC(=O)c2cccc(Br)c2)C(C)(C)c2ccccc21 [SMR000254682]"
value_reported = 5.27

[[record]]
compound = "COC(=O)[C@@H](NC(=O)O[C@@H]1C(=O)c2ccc(OC)cc2O[C@H]1c1cccc(C(F)(F)F)c1)C(C)C"
value_reported = 5.91

[[record]]
compound = "O=C(CN(c1ccc2c(c1)OCCO2)S(=O)(=O)c1ccccc1)N1CCN(Cc2ccccc2)CC1 [MLS000693333]"
value_reported = 4.93

[[record]]
compound = "CCOC(=O)c1cc2c(ccn2-c2ccc(F)cc2)n1CC(=O)NC(C)(C)C"
value_reported = 1.29

[[record]]
compound = "COc1ccc(-c2cc(CNC(=O)CN(C)Cc3ccccc3)on2)cc1"
value_reported = 5.28

[[record]]
compound = "COCCN1C(=O)/C(=C/c2ccc(OCc3ccc(C(=O)O)cc3)c(OC)c2)S/C1=N/c1ccccc1"
value_reported = 4.35

[[record]]
compound = "Cc1cc([N+](=O)[O-])ccc1NCc1ccccc1 [2-methyl-4-nitro-N-(phenylmethyl)aniline]"
value_reported = 5.76

[[record]]
compound = "CC(C)(C)NC(=O)C(c1ccncc1)N(Cc1ccco1)C(=O)c1ccc(-c2ccccc2)[nH]1 (stereo not given)"
value_reported = 5.15

[[record]]
compound = "Cc1ccc(Nc2nnc(SCC(=O)c3ccc(Br)s3)s2)c(C)c1"
value_reported = 5.64

[[record]]
compound = "O=C(NCc1ccc2c(c1)OCO2)c1ccc(COc2cc(Cl)ccc2Cl)o1"
value_reported = 5.21

[[record]]
compound = "O=C(CSc1nnc(-c2c[nH]c3ccccc23)o1)N1CCCCC1 [SMR000003748]"
value_reported = 5.74

[[record]]
compound = "CCOc1ccc(C(CC(=O)O)NC(=O)C(Sc2ccccc2)c2ccccc2)cc1 (stereo not given)"
value_reported = 2.39

[[record]]
compound = "Cc1ccc(CSCCNC(=O)c2ccc(C)cc2)cc1"
value_reported = 2.57

[[record]]
compound = "COc1cc(C(=S)N2CCOCC2)ccc1OC(=O)Cc1ccc(F)cc1"
value_reported = 4.53


----------
Reported values of pEC50 for individual entries
- target-under-test: Solute carrier family 12 member 5 (Homo sapiens, UniProt Q9H2X9)
- measurement-notes: concentration-response of KCC2 transport modulators – cell-based, HEK293 KCC2, FluoZin-2 fluorescence, dose response (AID 1736)
- recorded-conditions: inactive by the depositor's call
pEC50: −log10 of the molar value.
reported-property: pEC50

[[record]]
compound = "O=C(CSc1nnnn1-c1ccccc1)Nc1nsc(-c2ccccc2)n1"
value_reported = 5.85

[[record]]
compound = "CN(c1ccccc1)c1ccc(/C=C(\\CCC(=O)O)c2nc3ccccc3s2)cc1[N+](=O)[O-]"
value_reported = 5.09

[[record]]
compound = "CSc1sc(-c2nnc(S)n2C)c2c1C=CCC2"
value_reported = 4.80

[[record]]
compound = "CN(C)CCn1c(=S)[nH]c2ccc(Cl)cc2c1=O"
value_reported = 4.17

[[record]]
compound = "O=C(CCCn1ncn2c(cc3occc32)c1=O)N1CCc2ccccc2C1"
value_reported = 4.35

[[record]]
compound = "O=C(NCCCn1ncc2ccccc21)c1cc(COc2c(F)cccc2F)on1"
value_reported = 4.73

[[record]]
compound = "O=C(NC(=S)Nc1ccc(-c2nc3ncccc3o2)cc1)c1ccccc1F"
value_reported = 5.74

[[record]]
compound = "COc1ccc(OC)c2sc(NNC(=O)COc3ccccc3)nc12"
value_reported = 5.58

[[record]]
compound = "O=C(O)/C=C/c1cn(Cc2ccccc2)nc1-c1ccc(Cl)cc1"
value_reported = 4.58

[[record]]
compound = "O=C(COc1ccc2ccccc2c1)NN=Cc1ccccn1"
value_reported = 3.48

[[record]]
compound = "Cc1cccc(N2CCN(C(=O)CCCn3c(=S)[nH]c4cc5c(cc4c3=O)OCO5)CC2)c1C"
value_reported = 4.65

[[record]]
compound = "CN(C)S(=O)(=O)c1ccc(NC(=O)CSc2ncnc3ccccc23)cc1"
value_reported = 1.06

[[record]]
compound = "CCCn1c(NC(=S)Nc2ccccc2)nc2ccccc21"
value_reported = 1.22

[[record]]
compound = "Cn1cc(SCC(=O)N2CCN(c3ccccc3)CC2)c2ccccc21"
value_reported = 4.11

[[record]]
compound = "COc1ccc(-c2nc(C[S+]([O-])CC(=O)N3CCc4ccccc4C3)c(C)o2)cc1 (stereo unspecified)"
value_reported = 2.85

[[record]]
compound = "COC(=O)[C@@H](NC(=O)O[C@@H]1C(=O)c2cc(Br)ccc2O[C@H]1c1cccc(OC)c1)C(C)C"
value_reported = 4.47

[[record]]
compound = "Cc1ccc(Nc2nnc(SCC(=O)c3cc4ccccc4o3)s2)cc1C"
value_reported = 7.07

[[record]]
compound = "Cc1cc2ccccn2c1C(=O)c1nc(N2CCOCC2)ncc1Cl"
value_reported = 4.96

[[record]]
compound = "COc1ccc(C(=O)CSc2nnnn2Cc2ccccc2)cc1"
value_reported = 5.77

[[record]]
compound = "O=C(O)CC/C(=C\\c1cccc(NC(=O)c2ccccc2Cl)c1)c1nc2ccccc2s1"
value_reported = 5.32

[[record]]
compound = "O=c1oc2ccccc2c(Nc2cc3ccccc3cc2O)c1[N+](=O)[O-]"
value_reported = 4.94


----------
- target-under-test: UniProtKB Q9H2X9
- Sequence (Q9H2X9 whole entry): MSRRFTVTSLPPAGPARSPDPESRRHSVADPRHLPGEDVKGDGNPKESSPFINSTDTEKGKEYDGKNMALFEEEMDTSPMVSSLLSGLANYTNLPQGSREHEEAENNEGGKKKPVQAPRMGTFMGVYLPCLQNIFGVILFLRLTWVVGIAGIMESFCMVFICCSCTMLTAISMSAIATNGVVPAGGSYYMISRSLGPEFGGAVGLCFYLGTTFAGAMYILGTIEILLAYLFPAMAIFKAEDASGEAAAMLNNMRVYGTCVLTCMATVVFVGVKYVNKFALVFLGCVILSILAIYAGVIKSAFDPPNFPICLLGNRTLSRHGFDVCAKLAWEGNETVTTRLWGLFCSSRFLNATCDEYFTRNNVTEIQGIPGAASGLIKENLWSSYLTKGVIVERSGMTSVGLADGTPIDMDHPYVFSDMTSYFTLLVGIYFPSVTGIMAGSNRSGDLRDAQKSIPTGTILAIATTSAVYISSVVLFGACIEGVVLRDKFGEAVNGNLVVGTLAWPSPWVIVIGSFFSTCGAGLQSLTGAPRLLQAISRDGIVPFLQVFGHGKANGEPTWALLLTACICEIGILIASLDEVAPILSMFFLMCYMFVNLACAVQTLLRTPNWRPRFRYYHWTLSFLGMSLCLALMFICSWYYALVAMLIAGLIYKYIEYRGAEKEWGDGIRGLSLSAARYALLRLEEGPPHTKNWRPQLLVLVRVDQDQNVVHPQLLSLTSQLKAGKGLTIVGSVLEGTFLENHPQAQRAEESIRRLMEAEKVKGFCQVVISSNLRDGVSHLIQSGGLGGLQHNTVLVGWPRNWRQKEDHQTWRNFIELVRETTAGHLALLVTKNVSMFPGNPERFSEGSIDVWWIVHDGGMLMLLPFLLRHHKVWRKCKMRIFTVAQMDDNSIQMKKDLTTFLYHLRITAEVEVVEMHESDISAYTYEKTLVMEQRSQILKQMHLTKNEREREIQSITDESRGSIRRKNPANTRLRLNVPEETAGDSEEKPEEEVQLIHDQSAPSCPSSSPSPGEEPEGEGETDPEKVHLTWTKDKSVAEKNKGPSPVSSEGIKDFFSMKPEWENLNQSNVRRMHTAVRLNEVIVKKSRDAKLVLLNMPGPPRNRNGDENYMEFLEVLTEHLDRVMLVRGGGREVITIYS
- measurement-notes: concentration-response of KCC2 transport modulators – cell-based, HEK293 KCC2, FluoZin-2 fluorescence, dose response (AID 1736)
pEC50: −log10 of the molar value.
pEC50 for assorted compounds
reported-property: pEC50

[[record]]
compound = "O=C(Nc1ccc2oc(-c3ccccc3)nc2c1)c1ccncc1"
value_reported = 5.31

[[record]]
compound = "CCN(CC)S(=O)(=O)c1ccc(NC(=O)CSc2ncnc3ccccc23)cc1"
value_reported = 5.96

[[record]]
compound = "CC(C)c1onc(C(=O)N2CCN(Cc3ccccc3)CC2)c1[N+](=O)[O-]"
value_reported = 6.47

[[record]]
compound = "C=CCn1c(Cc2cccs2)nnc1SCC(=O)c1ccc2ccccc2c1"
value_reported = 5.35

[[record]]
compound = "O=C(O)c1cc(-c2ccc(F)cc2F)ccc1O"
value_reported = 4.59

[[record]]
compound = "CCCC1=NN2C(=N)/C(=C\\c3cc(C)n(-c4cc(C)cc(C)c4)c3C)C(=O)N=C2S1"
value_reported = 5.17

[[record]]
compound = "Cc1ccc2oc(-c3ccc(C)c(NC(=S)NC(=O)c4cccs4)c3)nc2c1"
value_reported = 5.69

[[record]]
compound = "CN(Cc1ccccc1)c1nc2nonc2nc1N1CCCC(CN2CCCC2=O)C1 (stereo unspecified)"
value_reported = 5.61

[[record]]
compound = "Cc1onc(C(=O)N2CCN(Cc3ccccc3)CC2)c1[N+](=O)[O-]"
value_reported = 4.23

[[record]]
compound = "O=C(C1CCCN(S(=O)(=O)c2cccc3nonc23)C1)N1CCC(Cc2ccccc2)CC1 (stereo unspecified)"
value_reported = 2.42

[[record]]
compound = "O=C(NC(=S)Nc1nc(-c2cccc([N+](=O)[O-])c2)cs1)c1ccccc1Cl"
value_reported = 5.02

[[record]]
compound = "O=c1[nH]c2c(s1)C(c1ccccc1)c1c(c(O)n(-c3ccccc3)c1O)S2 (stereo unspecified)"
value_reported = 7.18

[[record]]
compound = "c1ccc(-n2cnc3cc(NCc4ccncc4)ccc32)cc1"
value_reported = 5.72

[[record]]
compound = "O=C(CNC(=O)/C(=C/c1ccccc1)NC(=O)c1ccc(Br)cc1)OCc1ccccc1"
value_reported = 5.94

[[record]]
compound = "O=C(NCCc1cn2ccccc2n1)c1cc(COc2c(F)cccc2F)on1"
value_reported = 4.10

[[record]]
compound = "Cc1ccc(OCCC(=O)OCC(=O)N2c3ccccc3CC2C)cc1 (stereo unspecified)"
value_reported = 5.41

[[record]]
compound = "Cc1nn(C)c(C)c1C=C1SC(S)=NC1=O"
value_reported = 4.29

[[record]]
compound = "Cn1c(CSc2nc3ccccc3s2)nc2ccccc21"
value_reported = 4.83

[[record]]
compound = "Sc1nnc(COc2ccc(Cl)cc2)o1"
value_reported = 5.03

[[record]]
compound = "CC(=O)NCC1CCCN(c2nc3nonc3nc2N(C)Cc2ccccc2)C1 (stereo unspecified)"
value_reported = 5.57

[[record]]
compound = "Cc1ccc(-c2noc(CN3CCN(Cc4ccccc4)CC3)n2)cc1"
value_reported = 5.18


Data provenance is BindingDB's records for doi:10.7270/Q2TX3CSC.
